# assay.info: In vivo brain exposure study in mouse
# experimental.setup: po; mouse CD-1 male, 10 mg/kg p.o., cassette, plasma, 8 h; read-out: Plasma-8 h
assay.endpoint: concentration at 8 h

* Nc1ncnc2c1ccn2[C@@H]1O[C@H]([C@H](O)c2ccc3c(c2)CC3)[C@@H](O)[C@H]1O [Example 2] | 178 ng/mL
* Nc1ncnc2c1c(F)cn2[C@@H]1O[C@H]([C@H](O)c2ccc3c(c2)CC3)[C@@H](O)[C@H]1O [Example 6] | 33.7 ng/mL

----------
# assay.info: In vivo pharmacokinetic study in rat
# experimental.setup: Sprague-Dawley (SD), blood, iv; rat SD female, i.v. 0.2 mg/kg, cassette; read-out: Vss
assay.endpoint: Vd (L/kg)

• Nc1ncnc2c1c(F)cn2[C@@H]1O[C@H]([C@H](O)c2ccc3c(c2)CC3)[C@@H](O)[C@H]1O [Example 6] = 1.91
